B1: MFF (parent)
chain: DDLTVVDAASLRRQIIKLNRRLQL

# Variants of: B1
# assay overview: protein stability index of a GFP-peptide fusion (GPS, HEK-293T) (PSI 1-6); higher = more stable;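 also: lentivirally expressed fusions sorted by FACS into six bins by GFP to DsRed ratio, PSI derived from sequencing read proportions per bin multiplied by bin number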
# test parameters: c terminus: a fixed tail appended
# protein stability index annotations
Keep the answer to the number alone.

Look over these answered cases.
q: Give reported protein stability index value for "D2G"
a: 2.56

q: Give reported protein stability index value for "L22A"
a: 3.25

q: Give reported protein stability index value for "S10E"
a: 2.13

New cases:
q: Give reported protein stability index value for "L24E"
a: 2.23

q: Give reported protein stability index value for "I16H"
a: 2.26

q: Give reported protein stability index value for "V6Y"
a: 1.77

All values here come from the supplement of paper PMC10567573.
